Task for the reader: assign each of the following compounds its reported normalized area under the dose-response curve.
# Test system: SU-DHL2 (cancer type: DLBCL)
# Protocol text: normalized area under the dose-response curve (viability relative to DMSO control) (fraction); higher = less sensitive (more viable cells)
# Experimental parameters: exposure time not given
Give bare numbers.

{"Compound": "O=C(c1ccc(OCCN2CCCCC2)cc1)c1c(-c2ccc(O)cc2)sc2cc(O)ccc12", "Meas value": 0.919}

Quick request: normalized area under the dose-response curve for each listed item, please.
1. Nc1cccc2c1C(=O)N(C1CCC(=O)NC1=O)C2=O (centres undefined) [Pomalidomide]
2. CS(=O)(=O)c1ccc(C(=O)Nc2ccc(Cl)c(-c3ccccn3)c2)c(Cl)c1
3. CN(C)C/C=C/C(=O)Nc1cc2c(Nc3ccc(F)c(Cl)c3)ncnc2cc1O[C@H]1CCOC1

[0.917, 0.94, 0.758]
